Each entry below lists one item and its recorded pEC50 value.
- measured on: DCAF15 RBM39 ternary complex (Homo sapiens, UniProt Q14498+Q66K64, DEL276-383)
- Construct: RBM39 (aa 150 to 331; UniProt: Q14498); TEV cleavage site (pGEX4T3 vector); E. coli for the RBM39 fragment according to b294
- method description: DCAF15 RBM39 Ternary Complex Formation Assay
- run parameters: apparent EC50 for compound-induced complex formation, 10 nM DCAF15 triplex, 50 nM RBM39 R1R2, FRET 665/615
pEC50: −log10 of the molar value.
measurement type: pEC50

molecule: NCCCCC(=O)N1CCC(CN2Cc3cc(Cl)c4c(Cl)c[nH]c4c3NS2(=O)=O)CC1 [Compound 9]
measurement type: pEC50
quantitative readout: 8.31

molecule: CC(C)(C)OC(=O)NCCCCC(=O)N1CCC(CN2Cc3cc(Cl)c4c(Cl)c[nH]c4c3NS2(=O)=O)CC1 [Compound 8]
measurement type: pEC50
quantitative readout: 8.35

molecule: COCCCCC(=O)N1CCC(CN2Cc3cc(Cl)c4c(Cl)c[nH]c4c3NS2(=O)=O)CC1 [Compound 6]
measurement type: pEC50
quantitative readout: 8.37

molecule: COCCOCC(=O)N1CCCC(CN2Cc3cc(Cl)c4c(Cl)c[nH]c4c3NS2(=O)=O)C1 (centres unmarked) [Compound 5]
measurement type: pEC50
quantitative readout: 8.11

molecule: COCCCCCOCCCN1Cc2cc(Cl)c3c(Cl)c[nH]c3c2NS1(=O)=O [Compound 3]
measurement type: pEC50
quantitative readout: 7.67
